# PROTOCOL_NOTES: yeast display, Sf9 membrane polyspecificity reagent, FACS + sequencing; frameworks hold sequencing errors
QUANTITY_KIND: polyreactivity (PSR sort gate)

Use the examples below as a reference point.
RESIDUE_STRING: QVQLVESGGGLVQAGGSLRLSCAASGTFSFYAMGWYRQAPGKERELVATIRSGGRTYYADSVKGRFTISRDNAKNTVYFQINSLKPEDTAVYYCAKTGFLGLRQYGYWGQGTQVTVSS
REPORTED_RESULT: high polyreactivity
--
RESIDUE_STRING: QVQHVESGGGLVQAGGSLRLSCAASGFTIPNYAMGLYRQAPGKERELVAAITSGGGRTNYADSVKGRFTISRDNAKNTVDLQMNSLKPEDTAVYDCAKTRLRGSEFGFWGQGTQVTVSS
REPORTED_RESULT: low polyreactivity
--
RESIDUE_STRING: QVQLVESGGGLVQAGGSLRLSCAASGRIFVLYDMGWYRQAPGKERELVAGISGSGGRTYYADSVKGRFTISRDNAKNTVYLQMNSLKPEDTAVYYCNARGYYWYRPYVNSNGGYWGQGTQVTVSS
REPORTED_RESULT: high polyreactivity
--
RESIDUE_STRING: QVQLVESGGGLVQAGGSLRLSCAASGRIFEDYAMGWYRQAAGKERELVARISSGDSTNYADSVKGRFTISRDNAKNTVYLQMNSLKPVVTAVYYCAAEGGVQEFDYWGQGTQVTVSS
REPORTED_RESULT: low polyreactivity

Entry QVQLVESGGGLVQAGGSLRLSCAASGRIFPGYAMGWYRQAPGKERELVAAISWIGGDTYYADSVKGRFTISRDNAKNTVYLQMNSLKPEDTAVYYCAARYGRHRVSWYATWRYGYWGQGTQVTVSS has what polyreactivity (PSR sort gate)?
low polyreactivity

====

# PROTOCOL_NOTES: yeast display, Sf9 membrane polyspecificity reagent, FACS + sequencing; frameworks hold sequencing errors
QUANTITY_KIND: polyreactivity (PSR sort gate)

Recorded polyreactivity (PSR sort gate), per entry:
RESIDUE_STRING: QVQLVESGGGLVQAGGSLRLSCAASVITFVFYAMGWYRQAPGKEREFVAGITWRGGRTYYADSVKGRFTISRDNAKNTVYLQMNSLKPEDTAVYYCNARSVVLTGGDYWGQGTQVTVSS
polyreactivity (PSR sort gate): high polyreactivity
//
RESIDUE_STRING: QVQLVESGGGLVQAGGSLRLSCAASGRTFYRYAMGWYRQAPGKEREFVAAISGSGGRTYYADSVKGRFTISRDNAKNTVYLQMNSLKPEDTAVYYCNAYPHAYTGSTREGDYWGQGTQVTVSS
polyreactivity (PSR sort gate): high polyreactivity
//
RESIDUE_STRING: QVQLVESGGGLVQAGGSLRLSCAATGRISVFYTMRWYRQPPGKATELVAVIRTSVGRTNYADYVKGRFTISRVNAKNTVYLQMNSLKPEDTAVYYCAAGVVSYGYNYYYWGQGTQVTVSS
polyreactivity (PSR sort gate): low polyreactivity
//
RESIDUE_STRING: QVQHVESGGGLVQAGGSLRLSCAASGGIYYQNAMGWYRQAPGKERELVAAISGRGGRTYYADSVKGRFTISRDNAKNTVYLQMNSLKPEDTAVYYCNADQATFSLYHEMDYWGQGTQVTVSS
polyreactivity (PSR sort gate): low polyreactivity
//
RESIDUE_STRING: QVQLVESGGGLVQAGGSLRLSCAASGSTFWVYTMGWYRQAPGKERELVAAISYGGGRTYYADSVKGRFTISRDNEKNTVYLQMNSLKPEDTAVYYCNKDYWRDVAQDVLDGYEYWGQGTQVTVSS
polyreactivity (PSR sort gate): low polyreactivity
//
RESIDUE_STRING: QVQLVESGGGLVQAGGSLRLSCAASGSIFYGYAMGWYIQAPGKERELVAAISGNGGSTYFADSVKGRFTISRDNAKNTVYLQMNSLKTEDTAVYYCAVEVYHYGYEYDYWGQGTQVTVSS
polyreactivity (PSR sort gate): high polyreactivity
//
RESIDUE_STRING: QVQLVESGGGLVQAGGSLRLSCADSGSIFPFYAMGWYRQAPGKERELVASISSGGSTNYADSVKGRFTISRDNAKKTVYLQMNSLKPEDTAVYYCNAVGTFVRYGTDGRDGVNYDYWGQGTQVTVSS
polyreactivity (PSR sort gate): low polyreactivity
//
RESIDUE_STRING: QVQLVESGGGLVQAGGSLRLICAASGRIFKNNAMGWYRQAPGKEREFVAAISSIGGRTYYADSVKGRFTISRDNAKNTVYLQMISLKPEDTAVYYCAARGYTGGLWYDYWGQGTQVTVSS
polyreactivity (PSR sort gate): high polyreactivity
//
RESIDUE_STRING: QVQLVESGGGLVQAGGSLRLSCAASGSIFRIYAMGWYRQAPGKERELVAAISFSTGSRTYYADSVKGRFTISRDNAKNTVYLQMNSLKPEDTAVYYCAAEYHPRVLYPNWYDYWGQGTQVTVSS
polyreactivity (PSR sort gate): low polyreactivity
//
RESIDUE_STRING: QVQLVESGGGLVKAGGSLRLSCAASGSTFGLYVMGWYRQAPGKERELVAAINRIGSRTYYADSVKGRFTISRDNAKNTVYLQMNSLKPEDTAVYYCAADYDYTSPGDDYWGQGTQVTVSS
polyreactivity (PSR sort gate): high polyreactivity

Form field: reported polyreactivity (PSR sort gate) of QVQLVESGGGLVQAGGSLRLSCAASGNTFGYYAMGWYRQAPGKERELVAAITSSGGRTYYADSVKGRFTISRDNAKNTVYLQMNSLKPEDTAVYYCAAGRVGARYPTYRFYYWGQGTQVTVSS
high polyreactivity

Data request, read-out polyreactivity (PSR sort gate), for QVQLVESGGGLVQAGGSLRLSCAASGYTLGPYAMGWYRQAPGKERELVATISSAGNTNYADSVKGRFTISRDNAKNTVYLQMNSLKPEDTAVYYCAAAIWYGFGGASGGTYYYWGQGTQVTVSS
high polyreactivity

// lookup polyreactivity (PSR sort gate) for QVQLVESGGGLVQAGGSLRLSCAASGSTFPYPYTMGWYREAPGKERELVAVISRTGGSTFYADSVKRRFTISRDNAKNTVYLQMNSLKPEDTAVYYCAARRDGWTFWKYDYWGQGTQVTVSS
high polyreactivity
